test system: U2OS; test: Multiplex assay against U2OS; type: toxicity, cell-based; conditions: human, 12 h, 10 µM, compound concentration 10 uM
Entries and their Population Hoechst High Intensity Objects (%) values follow.
reported endpoint: Population Hoechst High Intensity Objects (%)

| molecule | endpoint result |
| --- | --- |
| CC/C(=C(\c1ccc(O)cc1)c1ccc(OCCN(C)C)cc1)c1ccccc1 | 0 |
| CC(F)(F)CN1CCOc2c(nn(-c3ccccc3Cl)c2-c2ccc(Cl)cc2)C1=O | 1 |
| CC[C@H](Nc1ncnc2[nH]cnc12)c1nc2cccc(F)c2c(=O)n1-c1ccccc1 | 0 |
| Cc1noc(-c2ccc(-c3ccc(CC(=O)O)cc3)cc2)c1NC(=O)O[C@H](C)c1ccccc1Cl | 2 |
| O=c1cccc2n1C[C@@H]1CNC[C@H]2C1 | 0 |
| S=c1[nH]nc(-c2cccs2)n1-c1ccccc1 | 0 |
| O=C1N=C(NCc2cccs2)S/C1=C\c1ccc2ncccc2c1 | 0 |
| O=C(Nc1ccccc1Cl)c1cnc2ccc(C3CCNCC3)cn12.O=C(O)C(=O)O | 0 |
| CN1CCN2c3ncccc3Cc3ccccc3C2C1 (stereo not given) | 3 |
| O=C1NCc2ccc3c(-c4cccc(Cl)c4)c[nH]c3c21 | 0 |

Values from ChEMBL document CHEMBL5724801
